# tgt: T1, Recombinant MBP-mutCALR Type 1 fusion protein (human)
# T1 construct: custom made at Cepter; also called recombinant mutCALR protein
# protocol summary: SPR, IgG captured, 1:1 fit, Exp. 2
Entries and their koff
A number alone suffices; assume s⁻¹.

{"columns": ["binder", "koff [s⁻¹]"],
 "data": [
  ["anti-mutCALR antibody clone 176 (antibody, human IgG1, lambda, N297A, V domains shown) VH: EVQLVQSGAEVKKPGASVKVSCKVSGYTLTELSMQWVRQAPGKGLEWMGGFDPDAGETMYAEKFQGRLTVTEDTSTDTVYMELSSLRSEDTAVYFCATSPGYDFFDYWGQGTLVTVSS VL: SYVLTQPPSVSVAPGQTARITCGGSDIGDEIVHWYQQKPGQAPVLVVYDDSDRPSGIPERFSGSNSGNTATLTISRAQAGDEADYYCQVWDSSSDHLIFGGGTKLTVLG", 0.00278]
]}

**Query** What value of koff has been reported for the following binder? anti-mutCALR antibody clone 138 (antibody, human IgG1, lambda, N297A, V domains shown, human IgG1 N297A variant of clone 15) VH: EVQLVQSGAEVKKPGASVKVSCKVSGYTLTELSMQWVRQAPGKGLEWMGGFDPDDAETMYAEKFQGRLTVTEDTSTDTVYMELRSLTSEDTALYFCATSPGYDFFDYWGQGTLVTVSS VL: SYVLTQPPSVSVAPGKTARITCGGDNIGSKSVHWYQQKPGQAPVLVVYDDSDRPSGIPERFSGSNSGNTATLTISRVEAGDEADYYCQVWDSSNDLLIFGGGTKLTVLG
**Result** 0.00688

**Query** Also anti-mutCALR antibody clone 84 (antibody, human IgG1, lambda, N297A, V domains shown, human IgG1 N297A variant of clone 6) VH: EVQLVQSGAEVKKPGASVKVSCKVSGYTLTELSMQWVRQAPGKGLEWMGGFDPDDAETMYAEKFQGRLTVTEDTSTDTVYMELSSLRSEDTAVYFCATSPGYDFFDYWGQGTLVTVSS VL: SYVLTQPPSVSVAPGKTARITCGGNNIGSKSVHWYQQKPGQAPVLVVYDDSDRPSGIPERFSGSNSGNTATLTISRVEAGDEADYYCQVWDSSNDLLIFGGGTKLTVLG , if possible.
**Result** 0.0018

**Query** Also anti-mutCALR antibody clone 56 (antibody, human IgG1, lambda, N297A, V domains shown, human IgG1 N297A variant of clone 6) VH: EVQLVQSGAEVKKPGASVKVSCKVSGYTLTELSMQWVRQAPGKGLEWMGGFDPDAGETMYAEKFQGRLTVTEDTSTDTVYMELRSLTSEDTALYFCATSPGYDFFDYWGQGTLVTVSS VL: QSALTQPASVSGSPGQSITISCTGTSSDVGGYNYVSWYQQHPGKAPKLMIYEVSNRPSGVSNRFSGSNSGNTATLTINRVEAGDEADYYCQVWDSSNDLLIFGGGTKLTVLG , if possible.
**Result** 0.00212

**Query** Also anti-mutCALR antibody clone 74 (antibody, human IgG1, lambda, N297A, V domains shown, human IgG1 N297A variant of clone 6) VH: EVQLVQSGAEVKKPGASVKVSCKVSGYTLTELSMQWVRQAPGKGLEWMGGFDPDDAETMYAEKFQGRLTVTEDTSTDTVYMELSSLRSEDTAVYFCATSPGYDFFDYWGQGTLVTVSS VL: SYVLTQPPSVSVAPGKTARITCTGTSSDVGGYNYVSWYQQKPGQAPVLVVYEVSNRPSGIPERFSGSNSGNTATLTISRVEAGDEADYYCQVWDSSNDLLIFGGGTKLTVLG , if possible.
**Result** 0.00153

**Query** Also anti-mutCALR antibody clone 175 (antibody, human IgG1, lambda, N297A, V domains shown, human IgG1 N297A variant of clone 17) VH: EVQLVQSGAEVKKPGASVKVSCKVSGYTLTELSMQWVRQAPGKGLEWMGGFDPDDGETMYAEKFQGRLTVTEDTSTDTVYMELSSLRSEDTAVYFCATSPGYDFFDYWGQGTLVTVSS VL: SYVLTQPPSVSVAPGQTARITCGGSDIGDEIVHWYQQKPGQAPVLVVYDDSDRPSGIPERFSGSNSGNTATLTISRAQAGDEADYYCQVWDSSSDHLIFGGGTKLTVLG , if possible.
**Result** 0.00631

**Query** Also anti-mutCALR antibody clone 142 (antibody, human IgG1, lambda, N297A, V domains shown, human IgG1 N297A variant of clone 15) VH: EVQLVQSGAEVKKPGASVKVSCKVSGYTLTELSMQWVRQAPGKGLEWMGGFDPDEGETMYAEKFQGRLTVTEDTSTDTVYMELSSLRSEDTAVYFCATSPGYDFFDYWGQGTLVTVSS VL: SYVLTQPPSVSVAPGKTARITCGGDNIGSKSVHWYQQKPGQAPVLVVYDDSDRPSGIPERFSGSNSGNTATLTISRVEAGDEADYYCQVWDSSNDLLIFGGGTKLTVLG , if possible.
**Result** 0.00269

**Query** Also anti-mutCALR antibody clone 188 (antibody, human IgG1, lambda, N297A, V domains shown, human IgG1 N297A variant of clone 17) VH: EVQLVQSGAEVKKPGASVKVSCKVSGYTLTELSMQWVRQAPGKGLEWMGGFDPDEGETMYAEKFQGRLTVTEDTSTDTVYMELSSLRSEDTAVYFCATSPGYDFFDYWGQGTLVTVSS VL: SYVLTQPPSVSVAPGQTARITCGGSDIGDEIVHWYQQKPGQAPVLVVYDDSDRPSGIPERFSGSNSGNTATLTISRVEAGDEADYYCQVWDSSSDHLIFGGGTKLTVLG , if possible.
**Result** 0.00121

**Query** Also anti-mutCALR antibody clone 136 (antibody, human IgG1, lambda, N297A, V domains shown, human IgG1 N297A variant of clone 15) VH: EVQLVQSGAEVKKPGASVKVSCKVSGYTLTELSMQWVRQAPGKGLEWMGGFDPDSGETMYAEKFQGRLTVTEDTSTDTVYMELRSLTSEDTALYFCATSPGYDFFDYWGQGTLVTVSS VL: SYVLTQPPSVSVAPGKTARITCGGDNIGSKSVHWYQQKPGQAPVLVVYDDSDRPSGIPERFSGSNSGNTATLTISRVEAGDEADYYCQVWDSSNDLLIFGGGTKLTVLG , if possible.
**Result** 0.00507

**Query** Also anti-mutCALR antibody clone 81 (antibody, human IgG1, lambda, N297A, V domains shown, human IgG1 N297A variant of clone 6) VH: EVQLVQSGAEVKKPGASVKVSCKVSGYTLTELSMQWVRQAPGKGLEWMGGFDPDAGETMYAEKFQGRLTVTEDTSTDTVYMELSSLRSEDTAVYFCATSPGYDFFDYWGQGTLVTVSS VL: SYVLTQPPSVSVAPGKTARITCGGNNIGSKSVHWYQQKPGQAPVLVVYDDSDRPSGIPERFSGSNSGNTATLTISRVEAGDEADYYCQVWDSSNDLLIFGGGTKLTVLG , if possible.
**Result** 0.00494

The reported numbers originate from patent US20230272055A1.
